Molecular target: T1, MCL-1 (Homo sapiens)
T1 chain: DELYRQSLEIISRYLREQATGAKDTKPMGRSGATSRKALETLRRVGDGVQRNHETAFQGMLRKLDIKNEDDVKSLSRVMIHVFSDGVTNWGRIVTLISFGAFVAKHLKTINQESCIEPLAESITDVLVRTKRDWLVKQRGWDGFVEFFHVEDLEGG
Test: BLI
value-type: Kd (nM)
Value expressed in nM; do not type the unit.

binder	Kd, nM
αBAX1 (designed binder, biotinylated for BLI (Avi tag). Limits not given; the conventional BCL-2-fold core 172-327 is taken) GADPKKVLDKARDQAENRVRELAQKLEELYKEARKLDLTQEERRKLEKRYKAAMEEAIKDIHEAIEQAKEEADKLKDAGLVNEQQLKELKQRLNELAIAAAFRASGDTIEFRRKLQYG	600

The recorded Kd for αBAK1 (designed binder, biotinylated for BLI (Avi tag). Limits not given; the conventional BCL-2-fold core 172-327 is taken) GADPKKVLDKAKDQMENVVRKLKQILEELAKEARKLDLTQDEKIELILRYIVAHLAAIGDIEEAIREAKEEADKLKKAGLVNSQQLDEFKRRLEELHKEADRKRRDYAEEFRNKLEYG is 500

The recorded Kd for BAX-CDP01 (BAX-targeting computationally designed protein 01) (designed binder, biotinylated for BLI (Avi tag). Limits not given; the conventional BCL-2-fold core 172-327 is taken) GADPKKVLDKARDQAENRVRELAQKLEELYKEARKLDLTQEERRKLEKRYKAAMEEAIKDIREAIRQAKQEADKLKKAGLVNSQQLKELKQRLNELAIAAALRAIGDAIEFRRKLQYG is 10

The recorded Kd for αBAX2 (designed binder, biotinylated for BLI (Avi tag). Limits not given; the conventional BCL-2-fold core 172-327 is taken) GADPKKVLDKARDQAENRVRELRQKLTELYKEARKLDLTQEERRKLIKRYKAAMNEAIKDIHEAIEQAKEEADKLKDAGLVNEQQLKELKQRLNEKALAAAFRASGDTWHARRKLQYG is 18000

The recorded Kd for BAK-CDP02 (BAK-targeting computationally designed protein 02 of 11) (designed binder, biotinylated for BLI (Avi tag). Limits not given; the conventional BCL-2-fold core 172-327 is taken) GADPKKVLDKAKDQAENVVRKLKQILEELYKEARKLDLTQDEKIELILRYIAAMLAAIGDILEAIRQAKEEADKLKKAGLVNSQQLDELKRRLEELRKEAARKARDYAEEFRNKLEYG is 5.4

The recorded Kd for αBAK2 (designed binder, biotinylated for BLI (Avi tag). Limits not given; the conventional BCL-2-fold core 172-327 is taken) GADPKKVLDKADDQMENVVVTLKQELEELAKERRKLDLTQSEKIELKLRYIVAHLAAIGDIEEAIREAKEEADKLKKAGLVNSQQFAEFKRRLEELHKEADRKRRDYAEEFRNKLEYG is 310
